Assay: gradient 5% acetonitrile 3 min, to 50% in 2 min, to 85% in 15 min, held 3 min, 100 µL/min
Conditions: column: Zorbax Extend-C18 2.1 x 50 mm; eluents: water / acetonitrile, 0.1% formic acid
Entries are grouped by RP-LC retention time into these classes: label 0 = under 700 s, label 1 = from 700 s up to 800 s, label 2 = 800 s and over

Please let me know in which category the item "Cc1cc2c(cc1CNC(=O)Cn1c(C(F)(F)F)nc3ccccc31)OCCCO2" belongs.
label 2

Please let me know in which category the item "O=C(Cc1ccc(Cl)cc1)N1CCN(c2cc(-c3ccccc3)[nH]n2)CC1" belongs.
label 2

Please let me know in which category the item "Cc1ccc(-c2cn3c(CC(=O)NCCc4ccc(Cl)cc4)csc3n2)cc1C" belongs.
label 1

Please let me know in which category the item "Fc1ccccc1-c1nc(-c2ccc3c(c2)ncn3CCN2CCOCC2)no1" belongs.
label 0

Please let me know in which category the item "COc1ccc(-c2nc(NC(=O)c3ccc(C#N)cc3)sc2C)cc1" belongs.
label 2

Please let me know in which category the item O=C(c1ccccc1)N1CCC(Oc2cc(N3CCOCC3)ncn2)C1 (centres undefined) belongs.
label 0

Please let me know in which category the item Fc1ccc(CN2CCCCC2c2nncn2CC2CC2)cc1F (centres undefined) belongs.
label 0

Please let me know in which category the item "Cc1nnc2ccc(NC(C)C)nn12" belongs.
label 0

Please let me know in which category the item "COc1ccc(-n2ncc3c(=O)n(Cc4nc(-c5ccc(Cl)c(F)c5)no4)cnc32)cc1" belongs.
label 2

Please let me know in which category the item "CN1c2ccccc2C(=O)NC12CCN(C(=O)Nc1ccccc1Cl)CC2" belongs.
label 1

Please let me know in which category the item "c1ccc(-c2oncc2CN2CCN(c3ccccn3)CC2)cc1" belongs.
label 0

Please let me know in which category the item CC1CN([C@H]2C[C@@H](N=[N+]=[N-])[C@@H](CO)O2)C(=O)NC1=O (some centres undefined) belongs.
label 0

* * *

Test: gradient 5% acetonitrile 3 min, to 50% in 2 min, to 85% in 15 min, held 3 min, 100 µL/min
Conditions: column: Zorbax Extend-C18 2.1 x 50 mm; eluents: water / acetonitrile, 0.1% formic acid
Entries are grouped by RP-LC retention time into these classes: LOW (below 700 s), MID (700 s to below 800 s), HIGH (800 s or more)

Please let me know in which category the item "COc1cccc(CNC(=O)Cc2csc3nc(-c4cccc(Br)c4)cn23)c1" belongs.
HIGH

Please let me know in which category the item "CCNC(=O)c1cc(C)nc2c(C)cc(C)cc12" belongs.
LOW

Please let me know in which category the item "C[C@H]1CN(S(=O)(=O)c2ccc(F)cc2)C[C@@H]1c1nc(-c2ccccc2)no1" belongs.
HIGH

Please let me know in which category the item "CCn1c(N2CCC(C(=O)NCCCN3CCOCC3)CC2)cc(=O)n(C)c1=O" belongs.
LOW

Please let me know in which category the item "Cc1nc2ccn(Cc3ccco3)c(=O)c2cc1C(=O)NC1CCCC1" belongs.
MID

Please let me know in which category the item O=C(Cc1cccs1)NC1CCCN(c2cc(-c3ccccc3)[nH]n2)C1 (stereo not given) belongs.
MID

Please let me know in which category the item Cc1ccc(-n2nc(SC(C)C(=O)NC3CC3)ccc2=O)cc1Cl (stereo not given) belongs.
MID

Please let me know in which category the item Cc1ccc(OCC(=O)N2CCC(c3noc(-c4cnccn4)n3)C2)cc1 (stereo not given) belongs.
MID

Please let me know in which category the item "CC(=O)N1CCC(C(=O)Nc2nnc(C3CC3)s2)CC1" belongs.
LOW

Please let me know in which category the item "COc1ccc(-c2nc(C)cc(C)c2CNS(=O)(=O)c2ccccc2C)cc1" belongs.
LOW
